- Study target: TPKC1 (Homo sapiens, UniProt O95069, D309R/L311V/L365I/T411A/W310L)
- Sequence (O95069 whole entry D309R/W310L/L311V/L365I/T411A): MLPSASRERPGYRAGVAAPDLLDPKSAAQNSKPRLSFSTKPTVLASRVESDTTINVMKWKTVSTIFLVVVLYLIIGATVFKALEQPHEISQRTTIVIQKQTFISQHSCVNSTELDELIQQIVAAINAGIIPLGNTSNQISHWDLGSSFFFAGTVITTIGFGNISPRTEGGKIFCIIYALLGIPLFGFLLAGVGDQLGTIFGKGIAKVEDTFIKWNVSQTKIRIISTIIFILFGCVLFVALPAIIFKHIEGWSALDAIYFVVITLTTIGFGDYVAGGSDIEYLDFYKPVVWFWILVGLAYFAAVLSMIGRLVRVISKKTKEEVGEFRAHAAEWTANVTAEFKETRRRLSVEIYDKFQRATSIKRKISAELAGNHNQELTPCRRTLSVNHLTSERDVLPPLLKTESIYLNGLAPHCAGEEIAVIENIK
- Test details: Growth of TPKC1-containing CY162 cells on low potassium media
- Type: cell-based
- Parameters: The TPKC1 ORF was amplified by PCR with 5′ primer; expressed in transfected cells
- Test context: low (2-3 mM KCl) potassium media
- Excerpt: The TPKC1 ORF was amplified using oligos that added restriction endonuclease cleavage sites appropriate for insertion into the yeast expression vectors pLP100 and pYES2 (Invitrogen). The corresponding TPKC1 expression plasmids, pLP155 and pLP156, were constructed using standard molecular biological methodology and used to transform S. cerevisiae CY162 cells using the lithium acetate method. […]
Metric: inhibition of growth of TPKC1-containing CY162 cells

Molecule | Obs value
[Ba+2].[Cl-].[Cl-] [BaCl2] | inhibited
[Ca+2] [Ca^2+] | inhibited
C=C[C@H]1C[N@@]2CC[C@H]1C[C@H]2[C@H](O)c1ccnc2ccc(OC)cc12 [quinine] | inhibited
[Cl-].[Cs+] [CsCl] | inhibited

Give me measured inhibition of growth of TPKC1-containing CY162 cells, please, for this molecule: CC[N+](CC)(CC)CC [TEA]
not

----------
- Study target: TPKC1 (Homo sapiens, UniProt O95069, D309R/L311V/L365I/T411A/W310L)
- Test details: TPCK1-induced currents in X. laevis oocytes, two-electrode voltage clamp
- Format: cell-based
- Set-up: The TPKC1 ORF was amplified by PCR with 5′ primer; expressed in transfected cells; host or cells: Xenopus laevis oocytes injected with cRNA transcribed from pLP163
- Test context: relative to Ba2+ (50% at 1 mM), data not shown
Metric: block of TPKC1 current

These recorded examples may help you get a feel for the data.
Smiles input | Study target | block of TPKC1 current
Nc1ccncc1 | TPKC1 (Homo sapiens, UniProt O95069, D309R/L311V/L365I/T411A/W310L) | block to a lesser degree
CC[N+](CC)(CC)CC | TPKC1 (Homo sapiens, UniProt O95069, D309R/L311V/L365I/T411A/W310L) | failed to block
C=C[C@H]1C[N@@]2CC[C@H]1C[C@H]2[C@H](O)c1ccnc2ccc(OC)cc12 | TPKC1 (Homo sapiens, UniProt O95069, D309R/L311V/L365I/T411A/W310L) | block to a lesser degree
[Ca+2] | TPKC1 (Homo sapiens, UniProt O95069, D309R/L311V/L365I/T411A/W310L) | block to a lesser degree

Proceed to the following item.
Give me measured block of TPKC1 current, please, for this compound: `[Cl-].[Cs+]`
failed to block
